Measured growth inhibition of individual entries
assay-remarks: NCI Yeast Anticancer Drug Screen. Data for the mec2-1 strain (AID 157)
measurement-parameters: S. cerevisiae mec2-1 strain, at 50.0 µM, hits give high values
About 79,000 compounds went through this panel and 15% of them were active in at least one assay; those are over-represented in the sample as a whole.

molecule	growth inhibition / %
COc1ccc(C(=O)/C=C/c2ccccc2)c(O)c1OC	-1.85
C=C1C(=O)OC2CC(C)C3CC(OCCCl)OC(OCCCl)C3(C)CC12 (stereo unspecified)	7.65
CC(CC(=O)O)C(C)(C#N)C(=O)O (stereo unspecified)	1.4
CC(=O)OC1C(=O)OCC23CCC(C)=CC2OC2CC(OC(=O)/C=C/C=C/C(=O)OCCC1C)C3(C)C21CO1 (stereo unspecified)	-4.45
CCc1ncc(C)[nH]1	-13.8
CC(C)=CCC/C(C)=C/CN	-2.6

----------
assay-remarks: NCI Yeast Anticancer Drug Screen. Data for the mec2-1 strain (AID 157)
measurement-parameters: S. cerevisiae mec2-1 strain, at 50.0 µM, hits give high values
Protocol: Growth inhibition of yeast strains with defined genetic alterations is measured as a screen for potential anti-cancer activity. Selected strains with alterations in DNA damage repair or cell cycle control were exposed to compounds and growth inhibition was measured relative to vehicle treated controls. The strain used in this assay is mec2-1
This is part of a sample that, as a whole, favours compounds with a hit. Of some 79,000 tested, about 15% had one in any assay. Calls of active or inactive are those of the source. Cut-off read from the data, not from the text of the source: active = growth inhibition above about 70%; inactive = the rest.
This section presents molecules with their documented growth inhibition values.

molecule	growth inhibition
CN(Cc1c(O)ccc2ccccc12)Cc1c[nH]c2ccccc12	-13.8% (inactive)
CC(C)=C1CC(C)(C)N=C1CCN1CCOCC1	-20.6% (inactive)
COC(=O)N/N=C(\C)CC(=O)Nc1ccc(Cl)cc1	-32.6% (inactive)
O=C(Nc1ccccc1)Oc1ccccc1C1CCCCC1	2.4% (inactive)
CC(C)N1CCC(OC(=O)Nc2ccccc2)C1 (configuration not stated)	5.6% (inactive)
Cc1n[nH]c(=S)n1NC=O	-6.3% (inactive)
COc1cc2c(cc1OC)C(c1ccccc1[N+](=O)[O-])=NCC2	-0.8% (inactive)
CCOC(=O)C(=O)/C(=C/N1CCNC1=S)C(=O)OCC	-9.05% (inactive)
CC(=O)/C(=C/N1CCNC1=S)C(=O)Nc1ccc([N+](=O)[O-])cc1	-4.5% (inactive)
CCOC(CN(C)C(=S)Nc1cccc2ccccc12)OCC	-30.1% (inactive)
O=C([O-])c1cc(I)cc(I)c1[OH2+].O=C([O-])c1cc(I)cc(I)c1[OH2+].[Mn+2]	-19.4% (inactive)
Cn1ncc2c(NCc3ccccc3)nc(Cl)nc21	-11.2% (inactive)

----------
Entries and their growth inhibition
assay-remarks: NCI Yeast Anticancer Drug Screen. Data for the mlh1 rad18 strain (AID 175)
measurement-parameters: S. cerevisiae mlh1 rad18 strain growth inhibition; at 50.0 µM; hits give high values
Protocol: Growth inhibition of yeast strains with defined genetic alterations is measured as a screen for potential anti-cancer activity. Selected strains with alterations in DNA damage repair or cell cycle control were exposed to compounds and growth inhibition was measured relative to vehicle treated controls. The strain used in this assay is mlh1 rad18
This is part of a sample that, as a whole, favours compounds with a hit. Of some 79,000 tested, about 15% had one in any assay. The source made the active and inactive calls. Cut-off read from the data, not from the text of the source: active = growth inhibition above about 70%; inactive = the rest.
recorded-endpoint: growth inhibition

compound	recorded-endpoint	result
CC(N(N=O)c1cccc(Cl)c1)S(=O)(=O)O (stereo not given)	growth inhibition	-0.4% (inactive)
Cc1c(-c2nc3ccccc3[nH]2)c(=O)n(-c2ccccc2)n1C	growth inhibition	-38.9% (inactive)
NC(=S)N/N=C1/CCCC/C1=N/O	growth inhibition	-6.35% (inactive)
FCCCCSc1ncnc2nc[nH]c12	growth inhibition	-17.2% (inactive)
Cn1c(=O)[nH]c2c(-c3ccccc3)n[nH]c2c1=O	growth inhibition	4.3% (inactive)
CCCCCCCCCCCCCCCCCC(=O)Oc1ccc(OCc2ccccc2)cc1	growth inhibition	-16.6% (inactive)
COc1cc2c3c(c1OC)-c1cc4c(cc1CC3(C#N)N(C(=O)c1ccccc1)CC2)OCO4 (stereo not given)	growth inhibition	26.1% (inactive)
COc1ccc(Nc2nc3ccccc3nc2-c2cccs2)cc1	growth inhibition	17.3% (inactive)
Cc1c2oc3c(C)ccc(C(=O)NCc4cccnc4)c3nc-2c(C(=O)NCc2cccnc2)c(N)c1=O	growth inhibition	13.1% (inactive)
CCOC(=O)c1nc(N)c2c(CC#N)nn(C)c2n1	growth inhibition	-16.4% (inactive)
NC(CO)CSCc1ccccc1 (stereo not given)	growth inhibition	-0.65% (inactive)
CCOC(=O)C/C(C)=C1/N=C(c2ccccc2)OC1=O	growth inhibition	30.8% (inactive)
O=C1CCC(=O)N1C(c1ccccc1)(c1ccccc1)N1C(=O)CCC1=O	growth inhibition	-6.85% (inactive)
Cn1c(=O)c2[nH]c(SCCN3CCOCC3)nc2n(C)c1=S	growth inhibition	-4.95% (inactive)
COc1cc(C(c2ccc(O)c(OC)c2)c2ccc(O)c(OC)c2)ccc1O	growth inhibition	24.9% (inactive)
COc1ccc(CN2CCCN(Cc3ccc(OC)cc3OC)C2c2cccc(OC)c2O)c(OC)c1	growth inhibition	6.5% (inactive)
O=c1[nH]nc(Sc2ccccc2)c(=O)[nH]1	growth inhibition	-14.9% (inactive)
CCOc1cc(/C=N/NC(=O)C(O)C(O)C(O)C(O)CO)ccc1O (stereo not given)	growth inhibition	30.6% (inactive)
O=C(O)c1ccccc1Nc1nc2ccccc2o1	growth inhibition	0.25% (inactive)
NS(=O)(=O)c1ccc(N=Nc2c[nH]c(=O)c(O)c2)cc1	growth inhibition	2.3% (inactive)
CC(=O)Oc1ccccc1C(OC(C)=O)OC(C)=O	growth inhibition	34.4% (inactive)
CC(C)(C)[N+](=O)[O-]	growth inhibition	17.1% (inactive)
CCOC(=O)SC1=NC(C)=CC(C)(C)S1	growth inhibition	-4.7% (inactive)
CN(C)CCCNc1nc2cc(Cl)ccc2o1	growth inhibition	-2.4% (inactive)
N/C(=N\O)c1c(Br)n(C2OC(CO)C(O)C2O)c2ncnc(N)c12 (stereo not given)	growth inhibition	1.75% (inactive)

----------
assay-remarks: NCI Yeast Anticancer Drug Screen. Data for the rad50 strain (AID 155);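 note: 0% = growth of vehicle-only cultures of the same strain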
measurement-parameters: S. cerevisiae rad50 strain growth inhibition; at 50.0 µM
Compounds without any hit were thinned out: in the full panel of roughly 79,000, 15% have a hit. Calls of active or inactive are those of the source. No stated cut-off is given here; in the data, active means growth inhibition above about 70%; inactive means the rest.
Labels: t for active, f for inactive

molecule	group-label
C(=NCc1ccccc1)c1ccccc1-c1ccccc1C=NCc1ccccc1	t
CN(C)CCCNC(=O)c1cc(NC(=O)c2cc(NC(=O)c3cc(NC(=O)CCCn4ccc(CO)c4CO)cn3C)cn2C)cn1C	f
O=C(CN1C(=O)c2ccccc2C1=O)OCC1CCCN2CCCCC12 (configuration not stated)	f
CN(C)C1=c2c(=O)n(C)c(=O)n(C)c2=NC2C=CC=CN12 (configuration not stated)	f
CC(C)c1ccc(C=O)cc1	f
O=C(Cc1nc2sc3c(c2c(=O)[nH]1)CCCC3)Nc1ccccc1	f
c1ccc2c(c1)nc1n2C2CCC(C2)N1 (configuration not stated)	f
COc1c(CO)cc(C)cc1CO	f
O=[N+]([O-])c1cc(Br)c(F)cc1F	f
CCCCCCCCCCCCCCCCS	f
Cc1c(Cl)cccc1NC(=O)C(=O)C(C(=O)c1ccccc1-c1ccccc1)C1OC(=O)c2ccccc21 (configuration not stated)	f
CC1c2ccccc2Cn2cc3c(c21)C(=O)c1cccc(OP(=O)(O)OCc2ccccc2)c1C3=O (configuration not stated)	f
CC(=O)/C(=C/N1C(=O)CC(=O)NC1=S)C(=O)Nc1ccccc1	f
CCOc1ccc(CO)cc1	f
CCOC(=O)C1C(c2cc(OC)c(OC)c(OC)c2)c2cc3c(cc2OC1(C)OC)OCO3 (configuration not stated)	f
O=C1Cn2c(c3c(nc2=O)CCCC3)N1	f
CC1(C)C=C(C(Br)c2ccc(Cl)cc2)C(=O)c2ccccc21 (configuration not stated)	t
COc1ccc(C(C#N)NC23CC4CC(CC(C4)C2)C3)cc1OC (configuration not stated)	f
Cc1ccc2ccc(-c3cc4ccccc4s3)nc2c1	f
Cc1cc(Br)cc(C)c1NC(=O)C(=O)Nn1c(=S)[nH]c2ccccc2c1=O	f
O=C(Nc1ccccc1)Oc1ccccc1C1CCCCC1	f
CCC(=O)CCc1ccc(OC)cc1	f
C=C(C)c1ccccc1N	f
COc1cc(OC)c(/C=C2\N=C(C)N(Nc3nnc(NN4C(=O)/C(=C/c5c(OC)cc(OC)cc5OC)N=C4C)c4ccccc34)C2=O)c(OC)c1	f
O=C(OCC(Cl)(Cl)Cl)N1[C@@H]2C=C[C@@H](N1C(=O)OCC(Cl)(Cl)Cl)[C@@]13CCCCC21O3 (some centres not stated)	f
CCOC(=O)/C(C#N)=C/c1ccc(C)o1	f
Cc1c([N+](=O)[O-])cc(C(C)(C)C)c(OC(=S)N(C)C)c1[N+](=O)[O-]	f
O=C(Nc1cc(C(F)(F)F)ccc1Cl)N(Cc1ccccc1)c1ccccc1	f
[C-]#[N+]N=P(c1ccccc1)(c1ccccc1)c1ccccc1	f
ClCCCOc1ccccc1	f
COc1cc(-c2ccc(Nc3ccccc3C(=O)O)c(OC)c2)ccc1Nc1ccccc1C(=O)O	f
CC(=O)Nc1ncc2ccccc2c1-c1ccc(NC(=O)CCCl)cc1	f
CCCCNC[C@@H](O)[C@H](O)COS(C)(=O)=O	f
CCc1cc(-c2cc(CC)on2)no1	f
O=C(NCCCBr)Nc1cccc2c1CCCC2	f
CCC1([N+](=O)[O-])CC2C=CC1C2 (configuration not stated)	f
CC1=C(c2cc(C(=O)Nc3nccs3)nc(NC#N)n2)Sc2ccccc2N1	f
COc1cc(NCC2COc3c(ccc(OC)c3OC)C2=O)c([N+](=O)[O-])cc1OC (configuration not stated)	f
N#Cc1ccccc1N=Nc1nc(N)c(C(N)=O)[nH]1	f
CCCCNC(C)=O	f
Cc1c(-c2nc3ccccc3[nH]2)c(=O)n(-c2ccccc2)n1C	f
O=C(O)CC(=O)C(C(=O)O)C(CCc1ccccc1)C(C(=O)O)C(=O)CC(=O)O (configuration not stated)	f
O=COCc1ccc2c(c1)OCO2	f
COCCOCCOCCOC(C)=O	f
CCCCCN(CCCCC)CC(O)c1cc(-c2ccccc2)nc2c(Cl)cc(Cl)cc12 (configuration not stated)	f
CCCc1c(OC)c(=O)c2c(OC)cc(OC)c3c4c(OC)cc(OC)c5c(=O)c(OC)c(CCC)c(c1c23)c54	t
CC(C)(C)C(=O)/C(O)=C\c1ccccc1	f
